Target entity: GDP-bound KRAS wild-type protein (Homo sapiens)
Assay text: Binding to KRAS by surface plasmon resonance (SPR), dissociation constant KD
Assay conditions: 1:1 binding model
pKd: −log10 of the molar value.
Readout name: pKd

smiles_code=CCC[C@H]1C(=O)N[C@@H](CC(C)C)C(=O)N2C[C@@H](OC)C[C@H]2C(=O)N(C)[C@H]2C/C=C\CCN(C2=O)[C@@H](Cc2ccc(C)cc2)C(=O)N(C)CC(=O)N[C@@H](CCc2ccc(C(F)(F)F)c(OC)c2)C(=O)N2C[C@H](OCC)C[C@H]2C(=O)NC2(CCC2)C(=O)N(C)[C@@H](C2CCCC2)C(=O)N(C)[C@H](C(=O)N(C)C)CC(=O)N1C test_value=8.11
smiles_code=CC[C@H](C)[C@@H]1NC(=O)[C@H](COC)N(C)C(=O)C[C@@H](C(=O)N(C)C)N(C)C(=O)[C@H](C2CCCCC2)N(C)C(=O)C2(CC(C)(C)C2)NC(=O)[C@@H]2C[C@@H](OC(C)C)CN2C(=O)[C@H](CCc2cc(F)c(C(F)(F)F)c(F)c2)NC(=O)CN(C)C(=O)[C@H](Cc2ccc(C)cc2)N2CC/C=C\C[C@@H](C2=O)N(C)C(=O)CN(C)C1=O test_value=9.74
smiles_code=CCO[C@@H]1C[C@H]2C(=O)NC3(CC(C)(C)C3)C(=O)N(C)[C@@H](C3CCCC3)C(=O)N(C)[C@H](C(=O)N(C)C)CC(=O)N(C)[C@@H]([C@@H](C)OC)C(=O)N[C@@H]([C@@H](C)CC)C(=O)N(C3CC3)CC(=O)N(C)[C@H]3C/C=C\CCN(C3=O)[C@@H](Cc3ccc(C)cc3)C(=O)N(C)CC(=O)N[C@@H](CCc3ccc(C(F)(F)F)c(OC)c3)C(=O)N2C1 test_value=9.28

* * *

Target entity: GDP-bound KRAS wild-type protein (Homo sapiens, UniProt P01116)
Sequence (P01116 1-188 isoform P01116-2): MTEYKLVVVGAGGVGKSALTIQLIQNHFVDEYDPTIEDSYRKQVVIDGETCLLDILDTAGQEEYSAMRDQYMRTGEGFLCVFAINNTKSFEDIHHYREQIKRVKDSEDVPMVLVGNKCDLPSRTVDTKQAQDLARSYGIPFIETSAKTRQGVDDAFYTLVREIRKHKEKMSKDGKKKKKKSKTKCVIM
Assay text: Binding to KRAS by surface plasmon resonance (SPR), dissociation constant KD
Assay conditions: Single Cycle Kinetics, 1:1 binding model
Procedure: Surface plasmon resonance was used to analyze the binding affinity of compounds for KRAS, NRAS, and HRAS. […] The resulting sensorgram was subjected to curve fitting based on a 1:1 binding model on Biacore Insight Evaluation Software or T200 Evaluation Software, and thereby the dissociation constant KD of each compound with respect to KRAS, NRAS, and HRAS was determined. […]
Readout name: Kd (nM)

compound="CCO[C@@H]1C[C@H]2C(=O)NC3(CCC3)C(=O)N(C)[C@@H](C3CCCC3)C(=O)N(C)[C@H](C(=O)N3CCOCC3)CC(=O)N(C)[C@@H](CC(C)C)C(=O)N[C@@H]([C@@H](C)CC)C(=O)N3CC[C@H]3C(=O)N(C)[C@H]3C[C@@H](C)[C@@H](C)CN(C3=O)[C@@H](Cc3ccc(C(F)(F)F)cc3)C(=O)N(C)CC(=O)N[C@@H](CCc3cc(F)c(C(F)(F)F)c(F)c3)C(=O)N2C1 [PP1355]" target_entity="GDP-bound KRAS wild-type protein (Homo sapiens, UniProt P01116)" test_value=0.16
compound="CCO[C@@H]1C[C@H]2C(=O)NC3(CCC3)C(=O)N(C)[C@@H](C3CCCC3)C(=O)N(C)[C@H](C)CC(=O)N(C)[C@@H](CC(C)C)C(=O)N[C@@H]([C@@H](C)CC)C(=O)N(C)CC(=O)N(C)[C@H]3C/C=C\\CCN(C3=O)[C@@H](Cc3ccc(C)cc3)C(=O)N(C)CC(=O)N[C@@H](CCc3cc(F)c(C(F)(F)F)c(F)c3)C(=O)N2C1 [PP1417]" target_entity="GDP-bound KRAS wild-type protein (Homo sapiens, UniProt P01116)" test_value=0.26
compound="CC[C@H](C)[C@@H]1NC(=O)[C@H](CC)N(C)C(=O)C[C@@H](C(=O)N(C)C)N(C)C(=O)[C@H](C2CCCC2)N(C)C(=O)C2(CCC2)NC(=O)[C@@H]2CC(F)(F)CN2C(=O)[C@H](CCc2cc(F)c(C(F)(F)F)c(F)c2)NC(=O)CN(C)C(=O)[C@H](Cc2ccc(C(F)(F)F)cc2)N2CC/C=C\\C[C@@H](C2=O)N(C)C(=O)CN(C)C1=O [PP1129]" target_entity="GDP-bound KRAS wild-type protein (Homo sapiens, UniProt P01116)" test_value=0.056

Each recorded value in this set is attributed to patent EP4603105A1.
